These data points were gathered from patent US20160115200A1.

# TESTED_TARGET: His-JNK1 (ref 14-327, Upstate) (UniProt P45983 1-384)
# Sequence (P45983 other isoform, or with tags, fused parts or gaps): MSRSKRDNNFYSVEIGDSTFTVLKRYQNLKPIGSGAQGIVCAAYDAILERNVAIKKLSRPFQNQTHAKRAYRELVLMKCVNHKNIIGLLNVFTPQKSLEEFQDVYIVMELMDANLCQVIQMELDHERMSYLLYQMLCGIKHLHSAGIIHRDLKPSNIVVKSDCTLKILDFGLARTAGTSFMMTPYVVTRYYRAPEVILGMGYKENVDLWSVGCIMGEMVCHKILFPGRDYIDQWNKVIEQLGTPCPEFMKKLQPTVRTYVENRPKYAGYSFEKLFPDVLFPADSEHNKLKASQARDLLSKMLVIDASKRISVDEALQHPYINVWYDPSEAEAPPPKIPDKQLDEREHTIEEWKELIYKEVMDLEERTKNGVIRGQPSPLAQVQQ
# PROTOCOL_SUMMARY: kinase inhibition
Square brackets hold non-standard residues; d marks the D form. Ends that are not written are not given here.
I'd appreciate it if you could supply IC50 values for the items below.
Please state the figure in nM; there is no need to write the unit.

Please report the recorded IC50 for [dR]KKR[dR]QRR[dR]RPTTL[dR]L[dW] [SEQ ID NO: 178] . 329

Report IC50 for GRKKRRQRRRPPKRPTTLNLFPQVPRSQD [SEQ ID NO: 194] please. 14

// IC50 lookup, key: [dR]KKR[dR]QRR[dR]RP[dK]RP[dQ]TLNL[dF] [SEQ ID NO: 186] 1020
